As shown below, each of these compounds has a reported IC50 value.
Test target: Dihydrofolate reductase (Rattus norvegicus, UniProt Q920D2)
Sequence (Q920D2 whole entry): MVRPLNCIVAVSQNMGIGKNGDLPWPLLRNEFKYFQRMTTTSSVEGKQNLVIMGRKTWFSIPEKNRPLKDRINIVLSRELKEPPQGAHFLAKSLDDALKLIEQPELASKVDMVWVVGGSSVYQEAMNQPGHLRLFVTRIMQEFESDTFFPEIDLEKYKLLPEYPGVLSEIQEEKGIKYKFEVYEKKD
Lab book: enter the figure in µM, no units written.

The following compounds have reported results that may help.
>>> df
                               given_smiles  recorded_measurement
0  Cc1c(Sc2ccc(C(=O)N[C@@H](CCC(=O)O)C(=O)O)cc2)oc2nc(N)nc(N)c12                  20.5
1       COc1ccc(Sc2oc3nc(N)nc(N)c3c2C)cc1OC                  66.6
2         COc1ccc(Sc2oc3nc(N)nc(N)c3c2C)cc1                  61.9

Indicate its recorded IC50; the compound in question is "Cc1c(Sc2c(Cl)cccc2Cl)oc2nc(N)nc(N)c12"
14.4

---

Endpoint: IC50. System: Dihydrofolate reductase (Pneumocystis carinii). Items follow.
// return numeric value only (unit: µM, not printed)

>>> print(df.to_string())
                            given_smiles  recorded_measurement
0  Cc1c(Sc2cccc3ccccc23)oc2nc(N)nc(N)c12                   8.6

Turning to the following compound.
Give IC50 for this entry on Dihydrofolate reductase (Pneumocystis carinii): "COc1ccc(Sc2oc3nc(N)nc(N)c3c2C)cc1OC"
36.4

---

Test target: Bifunctional dihydrofolate reductase-thymidylate synthase (Toxoplasma gondii)
Property: pIC50
Friendly reminder that pIC50 comes from taking -log10 of the concentration in mol/L.

# lookup: Bifunctional dihydrofolate reductase-thymidylate synthase (Toxoplasma gondii) pIC50, key = "Cc1c(Sc2ccc(C(=O)N[C@@H](CCC(=O)O)C(=O)O)cc2)oc2nc(N)nc(N)c12"
4.57

---

Test target: UniProt P00374
Sequence (P00374 whole entry): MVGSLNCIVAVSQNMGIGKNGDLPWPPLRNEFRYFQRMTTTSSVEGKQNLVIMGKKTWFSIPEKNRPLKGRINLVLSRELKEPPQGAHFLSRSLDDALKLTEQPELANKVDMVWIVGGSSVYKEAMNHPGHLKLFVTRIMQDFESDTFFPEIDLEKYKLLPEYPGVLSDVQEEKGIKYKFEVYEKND
Property: pIC50
Scale for pIC50: -log10 of concentration given in mol/L; no unit attached.

Recall the reported pIC50 of "Cc1c(Sc2ccc(C(=O)N[C@@H](CCC(=O)O)C(=O)O)cc2)oc2nc(N)nc(N)c12" on UniProt P00374 and write it down.
5.40

---

Test target: Bifunctional dihydrofolate reductase-thymidylate synthase (Toxoplasma gondii)
Sequence (Q07422 whole entry): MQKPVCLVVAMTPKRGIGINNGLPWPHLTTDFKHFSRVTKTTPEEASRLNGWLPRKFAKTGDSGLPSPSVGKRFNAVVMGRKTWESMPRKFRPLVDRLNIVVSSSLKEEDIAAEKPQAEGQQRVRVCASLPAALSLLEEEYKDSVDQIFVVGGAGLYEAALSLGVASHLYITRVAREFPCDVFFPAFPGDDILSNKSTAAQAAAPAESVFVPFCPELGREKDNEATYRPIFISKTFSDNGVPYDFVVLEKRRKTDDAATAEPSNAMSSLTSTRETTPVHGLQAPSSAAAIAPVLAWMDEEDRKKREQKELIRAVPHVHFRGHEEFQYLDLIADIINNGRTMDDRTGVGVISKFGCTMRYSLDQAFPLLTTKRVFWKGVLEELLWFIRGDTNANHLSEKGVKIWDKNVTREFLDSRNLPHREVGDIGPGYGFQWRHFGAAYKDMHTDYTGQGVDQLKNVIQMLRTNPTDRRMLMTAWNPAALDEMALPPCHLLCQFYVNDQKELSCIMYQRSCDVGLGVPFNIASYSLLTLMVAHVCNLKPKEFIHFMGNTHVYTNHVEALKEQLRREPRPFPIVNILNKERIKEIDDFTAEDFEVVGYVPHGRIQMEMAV
Catalogue of IC50 readings, one per entry.
# value in µM; strip the unit string

>>> df
                               given_smiles  unit_label  recorded_measurement
0  Cc1c(Sc2ccc(C(=O)N[C@@H](CCC(=O)O)C(=O)O)cc2)oc2nc(N)nc(N)c12          µM                    12

Please indicate recorded IC50 of "Cc1cccc(C)c1Sc1oc2nc(N)nc(N)c2c1C" measured with Bifunctional dihydrofolate reductase-thymidylate synthase (Toxoplasma gondii).
19.7

---

Test target: Bifunctional dihydrofolate reductase-thymidylate synthase (Toxoplasma gondii, UniProt Q07422)
Property: IC50 (µM)
Respond with the bare value in µM.

// fetch IC50 given entry "Cc1c(Sc2ccc(C(=O)N[C@@H](CCC(=O)O)C(=O)O)cc2)oc2nc(N)nc(N)c12"
2.2

---

Test target: Dihydrofolate reductase (Pneumocystis carinii)
Sequence (P16184 whole entry): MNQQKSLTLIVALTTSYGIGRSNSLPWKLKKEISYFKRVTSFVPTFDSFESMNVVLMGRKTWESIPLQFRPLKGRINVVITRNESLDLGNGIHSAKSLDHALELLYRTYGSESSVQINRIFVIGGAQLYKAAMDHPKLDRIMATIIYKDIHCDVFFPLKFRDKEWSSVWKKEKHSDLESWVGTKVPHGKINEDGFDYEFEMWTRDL
pIC50: −log10 of the molar value.
// label = condition met if pIC50 is not less than 5, otherwise condition not met

Some solved cases for reference:
In [3]: df
Out[3]:
                               given_smiles   class_assignment
0         COc1cccc(Sc2oc3nc(N)nc(N)c3c2C)c1  condition not met
1         COc1ccc(Sc2oc3nc(N)nc(N)c3c2C)cc1  condition not met
2  Cc1c(Sc2ccc(C(=O)N[C@@H](CCC(=O)O)C(=O)O)cc2)oc2nc(N)nc(N)c12      condition met

Can "Cc1c(Sc2c(Cl)cccc2Cl)oc2nc(N)nc(N)c12" be said to have pIC50 at or above 5?
condition not met

Could you please find out whether "COc1ccc(OC)c(Sc2oc3nc(N)nc(N)c3c2C)c1" has pIC50 that meets 5 or exceeds it?
condition not met

Hi team, for "COc1ccccc1Sc1oc2nc(N)nc(N)c2c1C" , is the recorded pIC50 at or above 5?
condition not met

---

Measured IC50 values are reported for all entries that follow.
Test target: Dihydrofolate reductase (Mycobacterium avium, UniProt O30463)
Sequence (O30463 whole entry): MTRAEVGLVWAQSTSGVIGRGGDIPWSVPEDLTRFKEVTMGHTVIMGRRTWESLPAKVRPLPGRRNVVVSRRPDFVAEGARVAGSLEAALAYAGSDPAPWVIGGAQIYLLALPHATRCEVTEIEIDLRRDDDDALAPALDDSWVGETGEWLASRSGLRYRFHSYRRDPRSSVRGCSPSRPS
The reply must contain the numeric value and, after it, the unit.

Some compounds with recorded IC50:
                          given_smiles                               test_target  property  recorded_measurement
0    COc1cccc(Sc2oc3nc(N)nc(N)c3c2C)c1  Dihydrofolate reductase (Mycobacterium avium, UniProt O30463)      IC50               28.4 µM
1  COc1ccc(Sc2oc3nc(N)nc(N)c3c2C)cc1OC  Dihydrofolate reductase (Mycobacterium avium, UniProt O30463)      IC50               16.3 µM

Look up and state reported IC50 for "Cc1c(Sc2ccc(C(=O)N[C@@H](CCC(=O)O)C(=O)O)cc2)oc2nc(N)nc(N)c12"
0.00973 µM

Hello, please tell me recorded IC50 for this one: "COc1ccc(Sc2oc3nc(N)nc(N)c3c2C)cc1"
25.5 µM

Return reported IC50. Input compound: "COc1ccccc1Sc1oc2nc(N)nc(N)c2c1C"
23.9 µM

Name the recorded IC50 of the compound listed here: "COc1ccc(OC)c(Sc2oc3nc(N)nc(N)c3c2C)c1"
61.9 µM

---

Measured pIC50 accompanies every entry in the list below.
Test target: Dihydrofolate reductase (Rattus norvegicus, UniProt Q920D2)
Note: pIC50 values are expressed as the negative base-10 logarithm of concentration in M.

>>> df
                               given_smiles                               test_target  property  recorded_measurement
0  Cc1c(Sc2c(F)c(F)c(C(F)(F)F)c(F)c2F)oc2nc(N)nc(N)c12  Dihydrofolate reductase (Rattus norvegicus, UniProt Q920D2)     pIC50                  4.41
1         COc1cccc(Sc2oc3nc(N)nc(N)c3c2C)c1  Dihydrofolate reductase (Rattus norvegicus, UniProt Q920D2)     pIC50                  4.29
2     COc1ccc(OC)c(Sc2oc3nc(N)nc(N)c3c2C)c1  Dihydrofolate reductase (Rattus norvegicus, UniProt Q920D2)     pIC50                  4.37

State pIC50 on Dihydrofolate reductase (Rattus norvegicus, UniProt Q920D2). Entry: "COc1ccccc1Sc1oc2nc(N)nc(N)c2c1C"
4.25
